- procedure.text: Stability in human serum assessed as parent compound remaining at 100 uM measured after 2 hrs by LC-MS/MS analysis
- Assay type: ADME, cell-free
- experimental.conditions: read-out: Stabilty
measured.endpoint: remaining at 2 h, 100 µM (%)
One number for each entry, in %.

Req: Entry under review: COCCn1cnc2cc(NC(=O)c3ccccc3)cc(C(=O)NCc3cc(F)cc(F)c3)c21 . Reported remaining at 2 h, 100 µM?
Resp: 99.1
